Tested on: SW48
Assay: Anticancer activity against human SW48 cells assessed as reduction in cell viability by MTT assay
Assay type: functional, cell-based
Endpoint label: IC50

Task item: Request body: readout IC50, system SW48, query `C[C@H]1COc2c(Nc3ccc(-n4c(=O)[nH][nH]c4=O)cc3)c(F)cc3c(=O)c(C(=O)O)cn1c23` . Return the value.
Reply: ≤ 43 µM

###

Hi there, I'd appreciate the recorded pIC50 for every entry that follows.
Test system: A-431
Assay: Anticancer activity against human A-431 cells assessed as reduction in cell viability incubated for 72 hrs by MTT assay
Assay type: functional, cell-based
Settings: A-431, 72 h
pIC50: −log10 of the molar value.

Task item: Quick check: pIC50 of `O=C(O)c1cn(C2CC2)c2cc(N3CCN(C/C(=N/OCc4ccccc4)c4ccc(Cl)s4)CC3)c(F)cc2c1=O` ?
Reply: > 5.00

Task item: Quick one: pIC50 for `CCn1cc(C(=O)O)c(=O)c2cc(F)c(N3CCN(C/C(=N/OC)c4ccc(Cl)s4)CC3)nc21` ?
Reply: > 5.00

Task item: Query (compound): `O=C(O)c1cn(C2CC2)c2cc(N3CCN(C/C(=N/O)c4ccc(Cl)s4)CC3)c(F)cc2c1=O` ; field requested: pIC50
Reply: > 5.00

Task item: If you can, please state the reported pIC50 value of `O=C(O)c1cn(C2CC2)c2cc(N3CCNCC3)c(F)cc2c1=O` .
Reply: < 3.89

Task item: Consider the compound `CCn1cc(C(=O)O)c(=O)c2cc(F)c(N3CCNCC3)nc21` and give its measured pIC50.
Reply: < 3.89

Task item: Give its pIC50 value. Item: `CCn1cc(C(=O)O)c(=O)c2cc(F)c(N3CCNCC3)cc21`
Reply: < 3.89
